- Tested on: CAKI-1 renal
- Experiment Summary: NCI tumour cell line growth inhibition, 48 h
Recorded TGI values for a group of compounds are listed next.
Could you give me the number in µM? Just the number is fine.

Reference set, count: 2
CC(C)OC(=O)c1ccc(CCC2=CC(=O)C(Br)=CC2=O)cc1: 38.4
COc1cc(N(C)C)ccc1/C=c1/c2ccccc2n2c1cc(-c1ccccc1)[n+]2C: 2.33

[Q] Give CAKI-1 renal TGI for `CC(C)(C)c1ccc(C(=O)N/N=C/c2ccc(O)cc2O)cc1`
[A] 1.99

[Q] Find TGI (CAKI-1 renal) for the entry O=S(=O)(NC(=S)Nc1ccccc1)c1ccc(N2N=C3c4ccccc4CC3C2c2ccc(Cl)cc2)cc1 (stereo not given)
[A] 91.4

[Q] Provide value of TGI for this record tested with CAKI-1 renal: `O=C1c2cnccc2Cc2cccc3c2N1c1ccccc1S3`
[A] 32.6

Hello, the source for this data is PubChem BioAssay (NCI), in case you need it.
